Assay: Cytotoxicity against infected Vero host cells in T. cruzi intracellular assay
Type: cell-based, African green monkey
Settings: African green monkey, Vero cells infected with T. cruzi; infected Vero host cells, 96 h; read-out: pCC50 (Vero) +/- StDev (converted)
experimentalReadout: CC50 at 96 h

QUERY: CC50 at 96 h for COc1ccc2oc(C(=O)Nc3nc(-c4ccccn4)cs3)c(C)c2c1 ?
RESULT: 2.24 µM

QUERY: Need CC50 at 96 h, item c1ccc(Cc2ccc(OCCn3ccnc3)cc2)cc1
RESULT: 5.01 µM

QUERY: Tell me the measured CC50 at 96 h of NC(=O)C1Cc2ccccc2CN1C(=O)Cc1cn2ccsc2n1 (centres unmarked) , please.
RESULT: > 50.1 µM

QUERY: # CC50 at 96 h lookup, item O=C(NCC(=O)N1CCc2ccccc2C1)C1CCCCC1
RESULT: > 50.1 µM

QUERY: Quick check: CC50 at 96 h of Cn1ccnc1C(NS(=O)(=O)c1ccc(C#N)cc1)c1cccc(F)c1 (centres unmarked) ?
RESULT: > 50.1 µM

QUERY: What value of CC50 at 96 h has been reported for the following compound? CC1c2ccsc2CCN1C(=O)c1ccc(-n2cnnn2)cc1 (centres unmarked)
RESULT: > 50.1 µM

QUERY: Query (compound): COc1ccc(CC(=O)Nc2nc(-c3ccccn3)cs2)c(OC)c1 ; field requested: CC50 at 96 h
RESULT: 1 µM

QUERY: I have this compound here, O=C(CN1NS(=O)(=O)c2ccccc2C1=O)NCCc1ccccc1 , and I need its recorded CC50 at 96 h.
RESULT: > 50.1 µM

QUERY: Fill blank: measured CC50 at 96 h of the compound Cc1ccc2nc(-c3ccc(NS(=O)(=O)c4cc(C(=O)O)c(Cl)cc4Cl)cc3)sc2c1 is ____.
RESULT: 33.1 µM

QUERY: Give the measured CC50 at 96 h of CCCS(=O)(=O)c1ccc(NS(=O)(=O)c2sc3ccc(Cl)cc3c2C)cc1 .
RESULT: 11.5 µM

QUERY: Entry Nc1[nH]cnc1-c1nc(-c2ccccc2)cs1 has what CC50 at 96 h?
RESULT: 10.2 µM
